- Tested target: UniProt:Q9Y345
- Assay overview: Inhibition of recombinant human GlyT2a expressed in Xenopus laevis oocytes assessed as reduction in channel current by two-electrode voltage clamp electrophysiology relative to control
- Type: cell-based
Measured parameter: Imax (%)
One number for each entry, in %.

Past entries and their recorded results:
{"columns": ["Smiles code", "Imax, %"],
 "data": [
  ["CCCCCCCC/C=C\\CCCCCCCC(=O)N[C@H](CCSC)C(=O)O", 68.6],
  ["CCCCCCCC/C=C\\CCCCCCCC(=O)N[C@H](CCCNC(=N)N)C(=O)O", 70.9]
]}

// switching to the query compound
// recorded Imax for `CCCCCCCC/C=C\CCCCCCCC(=O)N[C@H](C)C(=O)O` : 81.7

---

Kindly state pIC50 for each of the entries shown.
- Tested target: UniProtKB Q9Y345
- Assay overview: Inhibition of recombinant human GlyT2a expressed in Xenopus laevis oocytes assessed as reduction in channel current by two-electrode voltage clamp electrophysiology
- Type: cell-based
Give bare numbers, as −log10 of the molar value.

{"columns": ["Smiles code", "pIC50"],
 "data": [
  ["CCCCCCCC/C=C\\CCCCCCCC(=O)N[C@@H](CCN)C(=O)O", 6.82],
  ["CCCCCCCC/C=C\\CCCCCCCC(=O)N[C@@H](CC(N)=O)C(=O)O", 6.21]
]}

Provide pIC50 for all items below, preserving their order.
1. CCCCCCCC/C=C\CCCCCCCC(=O)N[C@@H](CCC(=O)O)C(=O)O
2. CCCCCCCC/C=C\CCCCCCCC(=O)N[C@@H](CCCC)C(=O)O
3. CCCCCCCC/C=C\CCCCCCCC(=O)N[C@@H](CC(C)C)C(=O)O
4. CCCCCCCC/C=C\CCCCCCCC(=O)N[C@H](CCSC)C(=O)O
5. CCCCCCCC/C=C\CCCCCCCC(=O)N[C@H](C)C(=O)O

1. 5.36
2. 6.59
3. 6.84
4. 6.59
5. 5.63

---

- Tested target: Sodium- and chloride-dependent glycine transporter 2 (Homo sapiens)
- Assay overview: Inhibition of recombinant human GlyT2a expressed in Xenopus laevis oocytes assessed as reduction in channel current by two-electrode voltage clamp electrophysiology
- Type: cell-based
Measured parameter: pIC50
Give bare numbers, as −log10 of the molar value.

{"columns": ["Smiles code", "pIC50"],
 "data": [
  ["CCCCCCCC/C=C\\CCCCCCCC(=O)N[C@@H](C)C(=O)O", 5.91],
  ["CCCCCCCC/C=C\\CCCCCCCC(=O)N[C@@H](CCc1ccccc1)C(=O)O", 6.82]
]}

Provide pIC50 for all items below, preserving their order.
1. CCCCCCCC/C=C\CCCCCCCC(=O)N[C@@H](CO)C(=O)O
2. CCCCCCCC/C=C\CCCCCCCC(=O)N[C@@H](CCSC)C(=O)O
3. CCCCCCCC/C=C\CCCCCCCC(=O)N[C@@H](Cc1ccccc1)C(=O)O

[6.30, 7.53, 6.67]

---

- Tested target: Sodium- and chloride-dependent glycine transporter 2 (Homo sapiens, UniProt Q9Y345)
- Sequence (Q9Y345 whole entry): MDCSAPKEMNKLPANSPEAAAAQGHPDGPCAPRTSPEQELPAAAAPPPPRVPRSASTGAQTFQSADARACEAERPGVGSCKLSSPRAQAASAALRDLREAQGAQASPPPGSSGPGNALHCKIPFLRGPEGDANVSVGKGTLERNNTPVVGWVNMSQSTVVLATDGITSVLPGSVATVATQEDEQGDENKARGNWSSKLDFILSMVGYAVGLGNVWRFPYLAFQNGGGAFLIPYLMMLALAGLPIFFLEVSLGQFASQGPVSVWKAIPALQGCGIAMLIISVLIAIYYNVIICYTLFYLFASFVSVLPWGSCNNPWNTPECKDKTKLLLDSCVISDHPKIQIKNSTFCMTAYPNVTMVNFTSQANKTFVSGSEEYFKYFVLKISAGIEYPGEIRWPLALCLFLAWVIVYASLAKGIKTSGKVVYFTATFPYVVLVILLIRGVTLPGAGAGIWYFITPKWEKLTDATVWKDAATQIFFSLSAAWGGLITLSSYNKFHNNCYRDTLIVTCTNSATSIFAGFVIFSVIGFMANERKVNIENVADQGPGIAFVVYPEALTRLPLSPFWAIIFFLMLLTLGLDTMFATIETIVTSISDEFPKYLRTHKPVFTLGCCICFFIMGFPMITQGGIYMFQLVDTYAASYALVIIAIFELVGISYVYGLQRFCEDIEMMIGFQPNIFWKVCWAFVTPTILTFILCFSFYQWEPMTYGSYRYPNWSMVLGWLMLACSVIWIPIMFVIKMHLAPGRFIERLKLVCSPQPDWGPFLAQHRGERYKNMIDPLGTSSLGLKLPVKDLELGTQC
- Assay overview: Inhibition of recombinant human GlyT2a expressed in Xenopus laevis oocytes assessed as reduction in channel current by two-electrode voltage clamp electrophysiology
- Format: cell-based
pIC50: −log10 of the molar value.
Threshold check on pIC50: at or above 6 gives label 1, strictly below gives label 0.

Say whether `CCCCCCCC/C=C\CCCCCCCC(=O)N[C@H](Cc1cnc[nH]1)C(=O)O` shows pIC50 of 6 or more.
label 1

Say whether `CCCCCCCC/C=C\CCCCCCCC(=O)N[C@H](CC(C)C)C(=O)O` shows pIC50 of 6 or more.
label 0

Say whether `CCCCCCCC/C=C\CCCCCCCC(=O)N[C@@H](Cc1c[nH]c2ccccc12)C(=O)O` shows pIC50 of 6 or more.
label 1

Say whether `CCCCCCCC/C=C\CCCCCCCC(=O)N[C@@H](CN)C(=O)O` shows pIC50 of 6 or more.
label 1

Say whether `CCCCCCCC/C=C\CCCCCCCC(=O)N[C@H](Cc1c[nH]c2ccccc12)C(=O)O` shows pIC50 of 6 or more.
label 0
